Experimental protocol: Solubility of the compound at pH 2
Assay type: physicochemical
Experimental parameters: buffer
Readout type: solubility

Lookup: # lookup: solubility of `COCCOc1ccc(N2CCN(CCn3c(=O)n(C)c4c3nc(N)n3nc(-c5nccs5)nc43)CC2)cc1F`
Found: > 2000 µM

###

System tested: UniProt:P29274
Sequence (P29274 whole entry): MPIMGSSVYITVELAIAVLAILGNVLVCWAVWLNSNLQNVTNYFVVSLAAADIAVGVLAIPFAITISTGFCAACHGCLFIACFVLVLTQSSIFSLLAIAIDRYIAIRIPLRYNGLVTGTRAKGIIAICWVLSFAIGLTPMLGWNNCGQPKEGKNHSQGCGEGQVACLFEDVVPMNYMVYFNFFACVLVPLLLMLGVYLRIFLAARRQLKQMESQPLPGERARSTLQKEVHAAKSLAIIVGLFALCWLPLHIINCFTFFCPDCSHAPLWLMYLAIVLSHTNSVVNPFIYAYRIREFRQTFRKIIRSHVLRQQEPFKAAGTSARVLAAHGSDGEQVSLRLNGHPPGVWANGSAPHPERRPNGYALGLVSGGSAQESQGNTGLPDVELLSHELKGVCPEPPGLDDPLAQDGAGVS
Experimental protocol: Antagonist activity at human A2A receptor expressed in HEK293 cell membranes assessed as reduction in CGS-21680-induced cAMP level pretreated for 15 mins followed by CGS-21680 addition measured after 30 mins by HTRF assay
Type: functional, cell-based
Readout type: Ki (nM)
One number for each entry, in nM.

[[record]]
compound = "Cn1c(=O)n(CCN2CCN(c3ccc(C#N)c(F)c3)CC2)c2nc(N)n3nc(-c4ccco4)nc3c21"
observed_value = 0.4


I would be grateful if you could provide Ki for each of the following entries.
1. Cn1c(=O)n(CCN2CCN(c3ccc(F)cc3F)CC2)c2nc(N)n3nc(-c4ccco4)nc3c21
2. COCC(C)(C)Oc1ccc(N2CCN(CCn3c(=O)n(C)c4c3nc(N)n3nc(-c5ccco5)nc43)CC2)cc1
3. Cc1ccc(N2CCN(CCn3c(=O)n(C)c4c3nc(N)n3nc(-c5ccco5)nc43)CC2)cc1

Found:
[0.07, 2.1, 1.1]

Hi team, please reply with Ki for each item in this list.
1. Cn1c(=O)n(CCN2CCN(c3ccc(C#N)cc3)CC2)c2nc(N)n3nc(-c4ccco4)nc3c21
2. Cn1c(=O)n(CCN2CCN(c3ccc(OC4CC4)cc3)CC2)c2nc(N)n3nc(-c4ccco4)nc3c21
3. COCCOc1ccc(N2CCN(CCn3c(=O)n(C)c4c3nc(N)n3nc(-c5ccco5)nc43)CC2)cc1
4. Cn1c(=O)n(CCN2CCN(c3ccc(OC4CCOC4)cc3)CC2)c2nc(N)n3nc(-c4ccco4)nc3c21 (stereo not drawn)

Found:
1. 0.3
2. 0.25
3. 0.42
4. 0.22

Just for reference, ChEMBL document CHEMBL4190330 is where these values come from.
